# STUDY_SYSTEM: T1, human TNFR2 on the cell surface (CHO-TNFR2 cells; human Treg cells) (human, UniProt P20333 23-461)
# T1 sequence (looked up): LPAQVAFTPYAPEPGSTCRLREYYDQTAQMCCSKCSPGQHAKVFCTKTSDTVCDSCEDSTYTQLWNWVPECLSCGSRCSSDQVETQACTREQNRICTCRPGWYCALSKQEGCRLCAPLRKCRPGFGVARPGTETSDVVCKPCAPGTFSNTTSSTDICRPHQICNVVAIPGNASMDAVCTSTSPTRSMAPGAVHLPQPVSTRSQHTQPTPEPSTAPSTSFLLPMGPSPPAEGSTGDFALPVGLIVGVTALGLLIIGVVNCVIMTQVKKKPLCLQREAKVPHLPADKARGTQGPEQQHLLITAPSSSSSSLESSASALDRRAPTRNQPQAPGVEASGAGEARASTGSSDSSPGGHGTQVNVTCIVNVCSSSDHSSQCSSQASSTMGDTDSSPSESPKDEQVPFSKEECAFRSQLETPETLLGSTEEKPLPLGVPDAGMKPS
# PROCEDURE_TEXT: cell-based or functional assay
MEASURED_PARAMETER: % AUC versus positive control (#52), ADCC against Treg (%)
Number in %, nothing else.

For orientation, consider the following solved cases.
Exercise: Param item = TNFR2 antibody #219 (antibody, V domains shown) VH: EVQLQESGAELVRPGASVKLSCKASGYSFTNYWMNWVKQRPGQGLEWIGMIHPSDTETRLNQNFKDKATLTVDKSSSTSYMQLSSPTSEDSAVYYCARGEGLGAARSVSMDYWGQGTTVTVSS VL: DILMTQSPSSLSASLGDRVTISCRASQDISNYLNWYQQKPDGTVKVLIYYTAILHSGVPSRFSGSGSGTDYSLTISNLEQEDIATYFCQQGNTLPWTFGGGTKLEIK ; retrieve measured % AUC versus positive control (#52), ADCC against Treg.
Key: 52.7

Exercise: Another binder to check: TNFR2 antibody #088 (antibody, V domains shown) VH: EVQLQESGGGLVQPGGSLNLSCAASGFAFSTYDLSWVRQTPGKRLEWVAYINNGGISTYYSDTVKGRFTITRDNAKNTLYLQMSSLKSEDTAMYYCVRGPFYGSANYFDYWGQGTTVTVSS VL: DILMTQSPASLSLFVGETVTITCRASENIYSNLAWYQQKQGKSPQLLVYDATKLAEGVPSRFSGSESGTQYSLKINSLQSEDFGTYYCQHFWVTPWTFGGGTKLEIK
Key: 45.3

Exercise: // next record TNFR2 antibody #352 (antibody, V domains shown) VH: EVQLQESGPGLVAPSQSLSITCTVSGFSLTSYGVHWVRQPPGKGLEWLVVIWSDGGTTYNSALKSRLSISKDNSKSQVFLKMNSLQTDDTAMYYCARHDDDGYYAMDYWGQGTTVTVSS VL: DIVLTQSPSLMSASPGEKVTMTCSASSSVGYMYWYQQKPRSSPKPWIYLTSNLASGVPARFSGSGSGTSYSLTISSMEVEDAATYYCQQWSSDPFTFGSGTKLEIK
Key: 61.4

Exercise: Moving on to TNFR2 antibody #226 (antibody, V domains shown) VH: EVQLQESGAELVRPGASVKLSCKASGYSFTNYWMNWVKQRPGQGLEWIGMIHPSDSETRLNQKFKDKATLTVDKSSSTAYMQLSSPTSEDSAVYYCARGEGLGAARSVSMDYWGQGTTVTVSS VL: DIQMTQSPSSLSASLGDRVTISCRASQDISNYLNWYQQKPDGTVKVLIYYTALLHSGVPSRFSGSGSGTDYSLTISNLEQEDIATYFCQQGNTLPWTFGGGTKLEIK
Key: 69

Exercise: Now give it for TNFR2 antibody #365 (antibody, V domains shown) VH: EVQLQESGPGLVQPSQSLSITCTVSGFSLTSYGVHWVRQSPGKGLEWLGLIWSDGSPDYSAAFISRLSINKDNSKSQVFFKMNSLQADDTAIYYCARNDDGGDYVMDYWGQGTTVTVSS VL: EIVLTQSPALMSASPGEKVTMTCSASSSVSYMYWYQQKPRSSPKPWIYLTSNLASGVPARFSGSGSGTSYSLTISSMEAEDAATYYCQQWTSNPLTFGAGTKLEIK too.
Key: 70.7

---
Exercise: Suppose we examine the binder TNFR2 antibody #395 (antibody, V domains shown) VH: EVQLQESGPVLVQPSQSLSITCTVSGFSLTSYSVHWVRQSPGKGLEWLGVIWSDGGTDYSAAFISRLSISKDNSKSQVFFKMNSLQADDTAIYYCARNDDGGDYAMDYWGQGTTVTVSS VL: EIVLTQSPALMSASPGEKVTMTCSASSSVSYMYWYQQKPRSSPKPWIYLTSNLASGVPARFSGSGSGTSYSLTISSMEAEDAATYYCQQWSSNPLTFGAGTKLEIK ; what % AUC versus positive control (#52), ADCC against Treg value has been reported?
Key: 59.3

Exercise: Also check TNFR2 antibody #125 (antibody, V domains shown) VH: EVQLQESGGGLVQPGGSLNLSCAASGFAFSIYDLSWVRQTPEKRLEWVAYINNGGISTYYSDTVKGRFTISRDNAKNTLYLQMSSLKSEDTAMYYCVRGPFYGSANYFDYWGQGTTVTVSS VL: DIQMTQSPASLSLSVGETVTITCRASENIYSNLAWYQQKQGKSPQLLVYDATKLAEGVPSRFSGSESGTQYSLKINSLQSEDFGTYYCQHFWVTPWTFGGGTKLEIK
Key: 69.6

Exercise: Then this binder: TNFR2 antibody #224 (antibody, V domains shown) VH: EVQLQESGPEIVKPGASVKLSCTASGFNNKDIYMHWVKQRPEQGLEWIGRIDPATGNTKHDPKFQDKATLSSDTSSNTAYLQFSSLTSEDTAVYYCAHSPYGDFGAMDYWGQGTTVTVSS VL: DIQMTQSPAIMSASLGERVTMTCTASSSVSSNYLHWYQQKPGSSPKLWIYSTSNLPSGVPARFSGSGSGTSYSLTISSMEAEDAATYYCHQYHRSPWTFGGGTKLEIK
Key: 48.1
